test: Antiasthamic activity in Wistar rat tracheal ring assessed as reversal of carbachol-induced contraction; assay type: functional; details: Trachea
pEC50: −log10 of the molar value.
measurement_kind: pEC50

Below, 5 compounds whose answers are already recorded.
COc1cc2ccc(=O)oc2cc1OC
4.10
CCOc1ccc2ccc(=O)oc2c1
3.61
CCOC(=O)COc1ccc2c(C)cc(=O)oc2c1
3.70
CC(=O)Oc1ccc2c(C)cc(=O)oc2c1
3.44
Cc1cc(=O)oc2cc(O)ccc12
3.59

[A] CCCOc1ccc2c(C)cc(=O)oc2c1
[B] CCCOc1cc2ccc(=O)oc2cc1OCCC
[C] O=c1ccc2ccc(O)cc2o1
// query Hey, quick one: sort these by pEC50, low to high? Show the ranking through the labels, in the order asked for.
// result C, A, B
(C: 3.35, A: 3.57, B: 4.05)

[A] CCCOc1ccc2ccc(=O)oc2c1
[B] COc1ccc2c(C)cc(=O)oc2c1
[C] CCOc1ccc2c(C)cc(=O)oc2c1
// query hey, can you rank those compounds up there by pEC50? biggest number first please Show the ranking through the labels, in the order asked for.
// result C, A, B
